Target: human PAD4 (hPAD4) (Homo sapiens)
Sequence (Q9UM07 whole entry): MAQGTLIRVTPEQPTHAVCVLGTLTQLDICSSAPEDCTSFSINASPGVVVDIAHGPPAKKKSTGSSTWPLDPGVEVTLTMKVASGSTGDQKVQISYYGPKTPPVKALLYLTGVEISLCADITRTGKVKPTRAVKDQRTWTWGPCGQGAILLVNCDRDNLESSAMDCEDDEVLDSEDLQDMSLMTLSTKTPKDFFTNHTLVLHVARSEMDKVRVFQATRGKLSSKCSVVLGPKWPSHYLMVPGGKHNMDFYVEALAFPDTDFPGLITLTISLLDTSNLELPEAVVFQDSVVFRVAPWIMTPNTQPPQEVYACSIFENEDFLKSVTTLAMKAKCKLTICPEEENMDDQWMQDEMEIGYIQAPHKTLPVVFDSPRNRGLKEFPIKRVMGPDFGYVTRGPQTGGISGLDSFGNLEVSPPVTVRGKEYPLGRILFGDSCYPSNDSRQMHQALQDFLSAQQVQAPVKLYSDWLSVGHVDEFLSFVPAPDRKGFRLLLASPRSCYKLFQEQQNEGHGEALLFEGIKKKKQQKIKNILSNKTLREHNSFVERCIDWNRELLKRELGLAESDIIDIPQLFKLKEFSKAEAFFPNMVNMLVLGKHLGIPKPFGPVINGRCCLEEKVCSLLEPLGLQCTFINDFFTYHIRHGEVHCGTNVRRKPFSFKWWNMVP
Assay: RFMS human PAD4 functional assay (rapid-fire mass spectrum)
Settings: 5 nM hPAD4 enzyme, 250 μM BAEE, 50 μM Calcium; 30 min preincubation, 90 min reaction at 37° C.
OBSERVATION TYPE: IC50 (nM)
Answers are plain numbers, in nM.

| MOLECULE | OBSERVATION TYPE | UNIT LABEL | TEST VALUE |
| --- | --- | --- | --- |
| COc1nccnc1N1CC(Cn2c(-c3cc4cccnc4n3CC3CC3)nc3cc(C(=O)N4C[C@H]5CC[C@@H]4[C@@H]5N)cc(OC)c32)C1 | IC50 | nM | 103 |
| COc1cc(C(=O)N2CCC[C@@H](N)C2)cc2nc(-c3cc4ccccc4n3CC3CC3)n(CC3CN(C(=O)c4ccc(C#N)cc4)C3)c12 | IC50 | nM | 95 |
| COc1cc(C(=O)N2C[C@H](N)C[C@@H](F)C2)cc2nc(-c3cc4ccccc4n3CC3CC3)n(Cc3cccnc3)c12 | IC50 | nM | 116 |
| COc1cc(C(=O)N2C[C@H]3CC[C@@H]2[C@@H]3N)cc2nc(-c3cc4cccnc4n3CC3CC3)n(CC3CN(c4cncnc4C#N)C3)c12 [Example 46] | IC50 | nM | 118 |

# input for lookup
Sure, the documented IC50 for `COc1cc(C(=O)N2C[C@H]3CC[C@@H]2[C@@H]3N)cc2nc(-c3cc4cccnc4n3CC3CC3)n(CC3CN(c4ccnc(C#N)c4)C3)c12` is 85
